System: SNB-19 CNS
Assay: NCI-60 one-dose screen, 48 h (100 = growth as untreated, 0 = no growth, -100 = all killed)
Conditions: 10 µM unless noted
This is part of a sample that, as a whole, favours compounds with a hit. Of some 83,000 tested, about 20% had one in any assay.
growth: recorded values

# Molecule, Target Of Assay, growth [%]
data = [
    ("Cc1ccc(Cl)cc1N1CCN(C(=O)[C@@H]2C[C@@H]2c2ccc(F)cc2)CC1", "SNB-19 CNS", 92),
    ("CC(=O)N1N=C(c2ccc(Nc3nc(Nc4ccc(F)cc4)nc(Nc4ccc(F)cc4)n3)cc2)CC1c1ccccc1 (stereo not given)", "SNB-19 CNS", 77.3),
    ("Cn1c(=O)c2c(nc(Nc3cc(=O)[nH]c(=O)[nH]3)n2Cc2ccccc2)n(C)c1=O", "SNB-19 CNS", 96.9),
    ("COc1ccccc1/C=C1\\COc2ccc(O)c(O)c2C1=O", "SNB-19 CNS", 43.7),
    ("COc1ccc2c(O)c(/C=C3\\N=Nc4nc(C)ccc43)oc2c1CC1CCNCC1", "SNB-19 CNS", 57.5),
    ("COc1ccc(Oc2nc(Nc3ccc(N4CCOCC4)cc3)ncc2NC(=O)c2cccc(C(F)(F)F)c2)cc1", "SNB-19 CNS", 87.5),
    ("O=C1/C(=C/c2ccc(-c3ccccc3C(F)(F)F)o2)SC(=S)N1CCc1ccc(O)cc1", "SNB-19 CNS", 87.8),
    ("COc1cccc(NC(=O)c2sc3nc(C)c(C(O)c4ccccc4)cc3c2N)c1 (stereo not given)", "SNB-19 CNS", 27.6),
    ("COc1ccc(-c2ccc(-c3ccc(C(=N)N)cn3)s2)cc1Cl", "SNB-19 CNS", -73.9),
    ("Cc1cc2nc(C(Cl)Cl)nc(-c3ccc(Cl)cc3)n2n1", "SNB-19 CNS", 12.6),
    ("O=C(Nc1ncc(Cc2cccc(C(F)(F)F)c2)s1)c1ccc2c(c1)OCCO2", "SNB-19 CNS", 42.9),
    ("O=S(=O)(Nc1ccc(F)cc1)c1ccc(-c2cnc(C3CC3)o2)cc1", "SNB-19 CNS", 29.7),
    ("Cc1cc(N2CCN(CC(=O)Nc3ccc4c(ccn4Cc4ccccc4)c3)CC2)nc(N2CCCCCC2)n1", "SNB-19 CNS", 57.3),
    ("NS(=O)(=O)c1ccc(C(=O)N=Nc2c(O)[nH]c3c(F)cccc23)cc1", "SNB-19 CNS", 97.4),
    ("N=C1/C(=C2\\NC3C=CC=CC3S2)C(c2ccc(Cl)cc2)C2C(=O)N(c3ccccc3)C(=S)N12 (stereo not given)", "SNB-19 CNS", 96.6),
    ("c1ccc(Cc2cccc[n+]2C(c2ccccc2)c2ccccc2)cc1", "SNB-19 CNS", 58.1),
    ("C[C@@H]1O[C@@H](O[C@H]2[C@@H](OC(=O)[C@]34CCC(C)(C)C[C@H]3C3=CC[C@@H]5[C@@]6(C)C[C@H](O)[C@H](O[C@@H]7O[C@H](CO)[C@@H](O)[C@H](O)[C@H]7O)[C@@](C)(CO)[C@@H]6CC[C@@]5(C)[C@]3(C)C[C@H]4O)OC[C@@H](O)[C@@H]2O)[C@H](O)[C@H](O[C@@H]2OC[C@@H](O)[C@H](O[C@@H]3OC[C@](O)(CO)[C@H]3O[C@@H]3OC[C@@H](O)[C@H](O)[C@H]3O)[C@H]2O)[C@H]1O[C@@H]1OC[C@](O)(CO)[C@H]1O", "SNB-19 CNS", 80.7),
    ("C=C1CCC2C3(C)COC(c4ccc(NC(C)=O)cc4)OC3CCC2(C)C1C/C=C1/C(=O)OCC1O (stereo not given)", "SNB-19 CNS", 83.6),
    ("CNC(=O)c1cc(Oc2ccc3nc(NC(=O)Nc4ccc(C(F)(F)F)cc4)sc3c2)ccn1", "SNB-19 CNS", 79.3),
    ("CCCCCCCCN(CCCCCCCC)CC(O)c1cc(Cl)ccc1OC (stereo not given)", "SNB-19 CNS", 91.2),
    ("C[C@]12CCc3c(ccc4cc(O)ccc34)[C@@H]1C[C@H](O)[C@@H]2O", "SNB-19 CNS", 95),
    ("Cc1nc2sc(C(=O)Nc3cccc4ncccc34)c(N)c2cc1C(C)O (stereo not given)", "SNB-19 CNS", 67.8),
    ("CC/C(=C(/c1ccc(O)cc1)c1ccc(OCCN2CCCCCC2)cc1)c1ccc(Cl)cc1", "SNB-19 CNS", 80.2),
    ("O=C1C(c2c[nH]c3ccccc23)=C(c2coc3cc(Br)ccc23)C(=O)N1O", "SNB-19 CNS", 103),
    ("Cc1ccc(-c2nc([P+](c3ccccc3)(c3ccccc3)c3ccccc3)c(Nc3ccccc3)o2)cc1", "SNB-19 CNS", 2.16),
    ("CC1(C)C(N)=Nc2cc(OCCCN3Cc4ccc(OCCc5cn(CC(=O)N6CCC(CCN7CCCC7)CC6)nn5)cc4C3)c(OCC3CC3)cc21", "SNB-19 CNS", 104),
    ("CN(Cc1ccccc1)c1nc(Cl)c(C2CC(c3ccc4c(c3)OCO4)=NN2c2cc(Cl)cc(Cl)c2)s1 (stereo not given)", "SNB-19 CNS", 106),
    ("COc1ccc(-c2cc(-c3cccc(Cl)c3)c(C#N)c(=O)[nH]2)c(OC)c1", "SNB-19 CNS", 94.2),
    ("CCOc1ccccc1NC(=O)c1cc2ccccc2cc1O", "SNB-19 CNS", 52.9),
    ("O=C1/C(=C/c2ccc(F)c(F)c2)CN(C(=O)C(Cl)Cl)C/C1=C\\c1ccc(F)c(F)c1", "SNB-19 CNS", -93.1),
    ("CCCCCCNC(=O)Oc1ccc(/C(=C(/CC)Cc2ccccc2)c2ccc(OCCCN(C)C)cc2)cc1", "SNB-19 CNS", 88.3),
    ("CCOC(=O)c1c(-c2ccc(C)cc2)c(C#N)c(=O)n(-c2cccc(C(F)(F)F)c2)c1N", "SNB-19 CNS", 88.8),
    ("COc1ccc(-c2cc(-c3cc(OC)c(OC)c(OC)c3)c(C#N)c(=O)n2CCCCC(=O)O)cc1", "SNB-19 CNS", 96.3),
    ("O=C(CN1C(=O)S/C(=C\\C(Cl)=C\\c2ccccc2)C1=O)NC1C=CS(=O)(=O)C1 (stereo not given)", "SNB-19 CNS", 40.4),
    ("O=C(Cc1ccc(F)cc1)c1ccccc1", "SNB-19 CNS", 109),
]

Hello, the source for this data is PubChem BioAssay (NCI), in case you need it.
